Recorded Mean Arterial Blood Pressure by entry
system: spontaneously hypertensive rats; experiment: Mean arterial blood pressure in spontaneously hypertensive rats; assay type: in vivo, Okamoto strain); details: 100 mg/kg by gavage at 0 and 24 hours, measured at 28 hours, 1 rat; average of SHR used 170+1.5 mm of mercury

compound string: Brc1ccc(-c2ccnc3nccn23)cc1
Mean Arterial Blood Pressure: 97
--
compound string: COc1cc(-c2ccnc3nccn23)cc(OC)c1OC
Mean Arterial Blood Pressure: 147
--
compound string: Cc1cc(-c2cccc(C(F)(F)F)c2)n2ccnc2n1
Mean Arterial Blood Pressure: 127
--
compound string: COc1ccc(-c2cc(C)nc3nccn23)cc1OC
Mean Arterial Blood Pressure: 148
--
compound string: Clc1ccc(-c2ccnc3nccn23)c(Cl)c1
Mean Arterial Blood Pressure: 111
--
compound string: Cc1cc(-c2ccc(Cl)c(Cl)c2)n2ccnc2n1
Mean Arterial Blood Pressure: 119
--
compound string: FC(F)(F)c1cccc(-c2ccnc3nccn23)c1
Mean Arterial Blood Pressure: 126
--
compound string: Clc1cccc(-c2ccnc3nccn23)c1
Mean Arterial Blood Pressure: 146
--
compound string: Fc1ccccc1-c1ccnc2nccn12
Mean Arterial Blood Pressure: 121

* * *

tested on: brain-specific receptors; assay: Inhibition of the binding of 3H-benzodiazepine to brain-specific receptors of rats; set-up: species or system rat (Wistar); conditions: 3H-flunitrazepam, rat whole cortex P2-synaptosomal fraction, pH 7.5, 30 minutes, 0° C.; test compound concentration not given
// thresholds for % Inhibition of 3H-benzodiazepine binding classes: band 1 = under 20%, band 2 = from 20% up to 40%, band 3 = 40% and over

compound string: Cc1cc(-c2ccccc2F)n2ccnc2n1
target or test system: brain-specific receptors
label: band 1

compound string: Fc1ccccc1-c1ccnc2nccn12
target or test system: brain-specific receptors
label: band 3

compound string: Cc1cc(-c2cccc(C(F)(F)F)c2)n2ccnc2n1
target or test system: brain-specific receptors
label: band 3

compound string: Clc1cccc(-c2ccnc3nccn23)c1
target or test system: brain-specific receptors
label: band 2

compound string: Clc1ccc(-c2ccnc3nccn23)c(Cl)c1
target or test system: brain-specific receptors
label: band 1

compound string: FC(F)(F)c1cccc(-c2ccnc3nccn23)c1
target or test system: brain-specific receptors
label: band 3

compound string: Cc1cc(-c2ccc(Cl)c(Cl)c2)n2ccnc2n1
target or test system: brain-specific receptors
label: band 2

compound string: Cc1cc(-c2ccccc2)n2ccnc2n1
target or test system: brain-specific receptors
label: band 3

compound string: COc1cc(-c2cc(C)nc3nccn23)cc(OC)c1OC
target or test system: brain-specific receptors
label: band 1

compound string: COc1ccc(-c2cc(C)nc3nccn23)cc1OC
target or test system: brain-specific receptors
label: band 3

Every entry's value here was drawn from patent US5037980A.
